Tested on: 233499-124-R-J3-PDC complex spheroid viability
Test: Anticancer human tumor 233499-124-R-J3-PDC patient-derived colon adenocarcinoma cell line growth inhibition [CLK]
Settings: second compound 0.1 µM; first compound 0.0949 µM; stronger effect = lower value
Excerpt: A high-throughput screen of multi-cell type tumor spheroids was designed to identify active combinations of […] and targeted small molecules. Complex spheroids include a stromal component modeled by human endothelial cells (HUVEC) and fibroblasts modeled by human mesenchymal stem cells (MSCs). […] Compounds. […] If the clinical Cmax for an agent had not been determined, the highest concentration tested was 10 microM. […]
Observed property: viability, T/C (%)
Response body: numeric value in %, unit text excluded.

Consider the reported viability, T/C for these compounds:
C=CC(=O)Nc1cc(Nc2nccc(-c3cn(C)c4ccccc34)n2)c(OC)cc1N(C)CCN(C)C + CNC(=O)c1ccc(Nc2nc(OC3CCCC3)c3c(-c4ccc5nc(C)oc5c4)c[nH]c3n2)c(OC)c1: 81.5
CC(C)CC(NC(=O)C(Cc1ccccc1)NC(=O)c1cnccn1)B(O)O (stereo unspecified) + CNC(=O)c1ccc(Nc2nc(OC3CCCC3)c3c(-c4ccc5nc(C)oc5c4)c[nH]c3n2)c(OC)c1: 0.16
CC(C)CC(NC(=O)C(Cc1ccccc1)NC(=O)c1cnccn1)B(O)O (stereo unspecified) + CN1CCN(c2cc(C(=O)Nc3cc4cc(-c5cnn(C)c5)ccc4cn3)ccn2)CC1: 0.18

Identify measured viability, T/C associated with NC(=O)C(=Cn1cnc(-c2cc(C(F)(F)F)cc(C(F)(F)F)c2)n1)c1cncnc1 + CN1CCN(c2cc(C(=O)Nc3cc4cc(-c5cnn(C)c5)ccc4cn3)ccn2)CC1
39.2

State its viability, T/C for this compound: NC(=O)C(=Cn1cnc(-c2cc(C(F)(F)F)cc(C(F)(F)F)c2)n1)c1cncnc1 + CNC(=O)c1ccc(Nc2nc(OC3CCCC3)c3c(-c4ccc5nc(C)oc5c4)c[nH]c3n2)c(OC)c1
72.8

Give viability, T/C for the following compound: C=CC(=O)Nc1cc(Nc2nccc(-c3cn(C)c4ccccc34)n2)c(OC)cc1N(C)CCN(C)C + CN1CCN(c2cc(C(=O)Nc3cc4cc(-c5cnn(C)c5)ccc4cn3)ccn2)CC1
94.5

====

Test system: 233499-124-R-J3-PDC complex spheroid viability
Test: Anticancer human tumor 233499-124-R-J3-PDC cell line growth inhibition [CLK];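 further: spheroids exposed to the drug combinations for seven days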
Settings: curve of first compound; second compound 10 µM
Observed property: pIC50
Please note pIC50 is a logarithmic value: minus log10 of concentration in mol/L. Answer with that number alone.

COc1ccc([C@@H](O)c2cc(-c3ncnc4cc(N5CCOCC5)ccc34)c(F)cc2Cl)nn1 + CNC(=O)c1ccc(Nc2nc(OC3CCCC3)c3c(-c4ccc5nc(C)oc5c4)c[nH]c3n2)c(OC)c1: 6.93

Answer briefly: pIC50 recorded on 233499-124-R-J3-PDC complex spheroid viability for CC(Nc1ccc2c(c1)OCCn1cc(N3C(=O)OCC3C(F)F)nc1-2)C(N)=O (stereo not given) + CNC(=O)c1ccc(Nc2nc(OC3CCCC3)c3c(-c4ccc5nc(C)oc5c4)c[nH]c3n2)c(OC)c1
5.97

====

Test system: 233499-124-R-J3-PDC complex spheroid viability
Assay: Anticancer human tumor 233499-124-R-J3-PDC cell line growth inhibition [CLK];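 further: spheroids exposed to the drug combinations for seven days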
Settings: curve of first compound; second compound 0.1 µM
Observed property: pIC50
The scale used: pIC50 is minus the common logarithm of the concentration in molar units.

Given CC(=O)O[C@H]1C(=O)[C@@]2(C)[C@H]([C@H](OC(=O)c3ccccc3)[C@]3(O)C[C@H](OC(=O)[C@H](O)[C@@H](NC(=O)c4ccccc4)c4ccccc4)C(C)=C1C3(C)C)[C@]1(OC(C)=O)CO[C@@H]1C[C@@H]2O + CN1CCN(c2cc(C(=O)Nc3cc4cc(-c5cnn(C)c5)ccc4cn3)ccn2)CC1 , respond with its pIC50.
7.24

====

Test system: 233499-124-R-J3-PDC complex spheroid viability
Test: Anticancer human tumor 233499-124-R-J3-PDC cell line growth inhibition [CLK];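 further: spheroids exposed to the drug combinations for seven days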;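 on viability, T/C: percent viability relative to DMSO vehicle control wells taken as 100%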
Details: second compound 0.316 µM; first compound 0.1 µM; stronger effect = lower value
From the text: A high-throughput screen of multi-cell type tumor spheroids was designed to identify active combinations of […] and targeted small molecules. Complex spheroids include a stromal component modeled by human endothelial cells (HUVEC) and fibroblasts modeled by human mesenchymal stem cells (MSCs). […] Compounds. […] If the clinical Cmax for an agent had not been determined, the highest concentration tested was 10 microM. […]
Observed property: viability, T/C (%)
Report the value in % with no unit label.

Use the examples below as a reference point.
C=C(F)C(=O)N1CCN(c2nc(OCC3CCCN3C)nc3c2CCN(c2cccc4cccc(Cl)c24)C3)CC1CC#N (stereo not drawn) + CN1CCN(c2cc(C(=O)Nc3cc4cc(-c5cnn(C)c5)ccc4cn3)ccn2)CC1: 90.3
O=C(c1cc(Cc2n[nH]c(=O)c3ccccc23)ccc1F)N1CCN(C(=O)C2CC2)CC1 + CN1CCN(c2cc(C(=O)Nc3cc4cc(-c5cnn(C)c5)ccc4cn3)ccn2)CC1: 99.4
CCN1CCN(Cc2ccc(Nc3ncc(F)c(-c4cc(F)c5nc(C)n(C(C)C)c5c4)n3)nc2)CC1 + CNC(=O)c1ccc(Nc2nc(OC3CCCC3)c3c(-c4ccc5nc(C)oc5c4)c[nH]c3n2)c(OC)c1: 94.2
COc1cccc2c1C(=O)c1c(O)c3c(c(O)c1C2=O)CC(O)(C(=O)CO)CC3OC1CC(N)C(O)C(C)O1 (stereo not drawn) + CN1CCN(c2cc(C(=O)Nc3cc4cc(-c5cnn(C)c5)ccc4cn3)ccn2)CC1: 97.6
O=c1[nH]cc(F)c(=O)[nH]1 + CNC(=O)c1ccc(Nc2nc(OC3CCCC3)c3c(-c4ccc5nc(C)oc5c4)c[nH]c3n2)c(OC)c1: 60.5

Answer with viability, T/C of CC1(C)CCC(CN2CCN(c3ccc(C(=O)NS(=O)(=O)c4ccc(NCC5CCOCC5)c([N+](=O)[O-])c4)c(Oc4cnc5[nH]ccc5c4)c3)CC2)=C(c2ccc(Cl)cc2)C1 + CNC(=O)c1ccc(Nc2nc(OC3CCCC3)c3c(-c4ccc5nc(C)oc5c4)c[nH]c3n2)c(OC)c1 measured for 233499-124-R-J3-PDC complex spheroid viability.
79.6

Report its viability, T/C with 233499-124-R-J3-PDC complex spheroid viability as the test system: Nc1ccn(C2OC(CO)C(O)C2(F)F)c(=O)n1 (stereo not drawn) + CNC(=O)c1ccc(Nc2nc(OC3CCCC3)c3c(-c4ccc5nc(C)oc5c4)c[nH]c3n2)c(OC)c1
56.8

Please look at CC1COCCN1c1cc(C2(S(C)(=N)=O)CC2)nc(-c2ccnc3[nH]ccc23)n1 (stereo not drawn) + CNC(=O)c1ccc(Nc2nc(OC3CCCC3)c3c(-c4ccc5nc(C)oc5c4)c[nH]c3n2)c(OC)c1 and tell me its recorded viability, T/C on 233499-124-R-J3-PDC complex spheroid viability.
88.1

State measured viability, T/C of the molecule CCCS(=O)(=O)Nc1ccc(F)c(C(=O)c2c[nH]c3ncc(-c4ccc(Cl)cc4)cc23)c1F + CNC(=O)c1ccc(Nc2nc(OC3CCCC3)c3c(-c4ccc5nc(C)oc5c4)c[nH]c3n2)c(OC)c1 with 233499-124-R-J3-PDC complex spheroid viability.
87.4

====

System: 233499-124-R-J3-PDC complex spheroid viability
Assay: Anticancer human tumor 233499-124-R-J3-PDC cell line growth inhibition [CLK]; active means viability on the fitted dose curve at most 10% of control; inactive means the rest;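 further: spheroids exposed to the drug combinations for seven days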
Settings: second compound 1 µM; first compound 1 µM
Lab note: assign the record to one of active, inactive

Nc1ccccc1NC(=O)c1ccc(CNC(=O)OCc2cccnc2)cc1 + CN1CCN(c2cc(C(=O)Nc3cc4cc(-c5cnn(C)c5)ccc4cn3)ccn2)CC1: active

Per the assay record, what outcome was assigned to COc1cccc2c1C(=O)c1c(O)c3c(c(O)c1C2=O)CC(O)(C(=O)CO)CC3OC1CC(N)C(O)C(C)O1 (stereo not given) + CNC(=O)c1ccc(Nc2nc(OC3CCCC3)c3c(-c4ccc5nc(C)oc5c4)c[nH]c3n2)c(OC)c1 ?
active

In this assay, the call recorded for Nc1ccn(C2OC(CO)C(O)C2(F)F)c(=O)n1 (stereo not given) + CN1CCN(c2cc(C(=O)Nc3cc4cc(-c5cnn(C)c5)ccc4cn3)ccn2)CC1 was what?
active

For this compound, state the assay outcome: C#Cc1c(F)ccc2cc(O)cc(-c3ncc4c(N5CC6CCC(C5)N6)nc(OCC56CCCN5CC(F)C6)nc4c3F)c12 (stereo not given) + CNC(=O)c1ccc(Nc2nc(OC3CCCC3)c3c(-c4ccc5nc(C)oc5c4)c[nH]c3n2)c(OC)c1
inactive

State the result this test recorded for COc1cccc2c1C(=O)c1c(O)c3c(c(O)c1C2=O)CC(O)(C(=O)CO)CC3OC1CC(N)C(O)C(C)O1 (stereo not given) + CN1CCN(c2cc(C(=O)Nc3cc4cc(-c5cnn(C)c5)ccc4cn3)ccn2)CC1 .
active
